So I've got a bunch of compounds here, and I need their IC50 values.
- System Name: recombinant human 15-PGDH (Homo sapiens (Human))
- Sequence (P15428 whole entry): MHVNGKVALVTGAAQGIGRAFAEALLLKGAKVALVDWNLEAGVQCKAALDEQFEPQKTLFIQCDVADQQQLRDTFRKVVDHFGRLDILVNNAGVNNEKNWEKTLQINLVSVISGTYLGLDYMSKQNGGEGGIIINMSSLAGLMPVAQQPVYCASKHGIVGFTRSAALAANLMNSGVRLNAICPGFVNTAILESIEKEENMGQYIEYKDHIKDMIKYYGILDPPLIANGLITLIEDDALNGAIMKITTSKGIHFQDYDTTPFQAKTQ
- Measurement Description: 15-PGDH enzyme inhibition test
- Experimental Parameters: 4 nM recombinant human 15-PGDH, 30 μM PGE2, 1 mM NAD+, fluorescence 340/440 nm after 60 min

// known answers, use as guide
[
  {
    "Compound": "Cn1nc2n(c1=O)CCN(c1cccc3cc(C(=O)N4CCC(F)(F)CC4)ccc13)C2 [compound 75]",
    "Result": "< 3 nM"
  },
  {
    "Compound": "Cn1nc2n(c1=O)CCN(c1ncc(F)c3cc(C(=O)N4CCC(F)(F)CC4)ccc13)C2 [compound 20]",
    "Result": "3 to 10 nM"
  },
  {
    "Compound": "CN1Cc2cc(-c3cccc4cc(C(=O)N5CCCC5)ccc34)cnc2C1=O [compound 14]",
    "Result": "< 3 nM"
  },
  {
    "Compound": "Cc1n[nH]c(=O)c2ccc(-c3cccc4cc(C(=O)N5CCC(F)(F)CC5)ccc34)cc12 [compound 83]",
    "Result": "< 3 nM"
  }
]

List the reported IC50 of each compound below.
1. CN1Cc2nc(-c3cccc4cc(C(=O)N5CCC(F)(F)CC5)ccc34)ccc2C1=O [compound 32]
2. O=C(c1ccc2c(-c3ccn4c(=O)[nH]nc4c3)cccc2c1)N1CCC(F)(F)CC1 [compound 26]
3. Cn1nc2n(c1=O)CCN(c1cccc3cc(C(=O)N4CCCCC4)cnc13)C2 [compound 90]
4. C[C@H]1CCCN(C(=O)c2ccc3c(N4CCn5c(nn(C)c5=O)C4)cccc3c2)C1 [compound 103]

Return:
< 3 nM
< 3 nM
3 to 10 nM
< 3 nM

---

- System Name: recombinant human 15-PGDH (Homo sapiens (Human))
- Measurement Description: 15-PGDH enzyme inhibition test
- Type: biochemical
- Experimental Parameters: 4 nM recombinant human 15-PGDH, 30 μM PGE2, 1 mM NAD+, fluorescence 340/440 nm after 60 min
Measure: IC50

// known answers, use as guide
[
  {
    "Chemical String": "CC1CCN(C(=O)c2ccc3c(-c4ccc5c(=O)[nH]ncc5c4)cccc3c2)CC1",
    "IC50": "< 3 nM"
  },
  {
    "Chemical String": "O=C(c1ccc2c(N3CCc4ncccc4C3)cccc2c1)N1CCCCC1",
    "IC50": "< 3 nM"
  },
  {
    "Chemical String": "Cn1nc2n(c1=O)CCN(c1nccc3cc(C(=O)N4CCC(F)(F)CC4)cc(F)c13)C2",
    "IC50": "3 to 10 nM"
  },
  {
    "Chemical String": "O=C(c1ccc2c(N3CCc4c(cc[nH]c4=O)C3)cccc2c1)N1CCC[C@@H](F)C1",
    "IC50": "< 3 nM"
  },
  {
    "Chemical String": "CN1Cc2cc(-c3ccc4cc(C(=O)N5CCC(F)(F)CC5)ccc4c3)ccc2C1=O",
    "IC50": "≥ 10 nM"
  }
]

List the reported IC50 of each compound below.
1. O=C(c1ccc2c(-c3cnc4c(=O)[nH]ncc4c3)c(F)ccc2c1)N1CCC(F)(F)CC1
2. NC(=O)c1ccc(-c2cccc3cc(C(=O)N4CCC(F)(F)CC4)ccc23)cc1F
3. C[C@H]1CCCN(C(=O)c2ccc3c(N4CCc5ncccc5C4)cccc3c2)C1

Return:
3 to 10 nM
< 3 nM
< 3 nM
